These measurements were taken from ChEMBL document CHEMBL4610053.

- System: A549
- Assay details: Antiproliferative activity against human A549 cells assessed as reduction in cell viability incubated for 48 hrs by Sulforhodamine B assay
- Type: functional
- Reported conditions: A549, 48 h
Observed property: GI50 (µM)

structure_as_smiles=O=C(/C=C/c1ccc2cc(Oc3ccc([N+](=O)[O-])cc3)ccc2n1)NO bound_sign== val=1.63
structure_as_smiles=COc1cccc(Oc2ccc3nc(/C=C/C(=O)NO)ccc3c2)c1 bound_sign== val=4.35
structure_as_smiles=COc1ccc(C(=O)c2ccc3nc(/C=C/C(=O)NO)ccc3c2)cc1 bound_sign== val=1.89
structure_as_smiles=COc1cc(C(=O)c2ccc3nc(/C=C/C(=O)NO)ccc3c2)cc(OC)c1OC bound_sign== val=3.35
structure_as_smiles=COc1ccc(S(=O)(=O)Nc2ccc3nc(/C=C/C(=O)NO)ccc3c2)cc1 bound_sign== val=4.31
structure_as_smiles=CC(C)c1ccc(Oc2ccc3nc(/C=C/C(=O)NO)ccc3c2)cc1 bound_sign== val=3.28
structure_as_smiles=O=C(/C=C/c1ccc2cc(-c3ccoc3)ccc2n1)NO bound_sign== val=1.92
structure_as_smiles=Cc1ccc(C(=O)c2ccc3nc(/C=C/C(=O)NO)ccc3c2)cc1 bound_sign== val=2.58
structure_as_smiles=COc1ccc(C(=O)c2ccc3nc(/C=C/C(=O)NO)ccc3c2)cc1OC bound_sign== val=3.31
structure_as_smiles=CN1CCc2c(c3ccccc3n2Cc2ccc(C(=O)NO)cc2)C1 bound_sign=> val=5
structure_as_smiles=O=C(CCCCCCC(=O)Nc1ccccc1)NO bound_sign== val=2.62
structure_as_smiles=COc1cc(Oc2ccc3nc(/C=C/C(=O)NO)ccc3c2)cc(OC)c1OC bound_sign== val=2.43
structure_as_smiles=COc1ccc(-c2ccc3nc(/C=C/C(=O)NO)ccc3c2)cc1 bound_sign== val=2.35
structure_as_smiles=COc1ccc(Oc2ccc3nc(/C=C/C(=O)NO)ccc3c2)cc1 bound_sign== val=3.2
structure_as_smiles=O=C(/C=C/c1ccc2cc(C(=O)c3ccc(F)cc3)ccc2n1)NO bound_sign== val=1.26

----------
- Organism: Homo sapiens
- Assay details: Selectivity ratio of IC50 for recombinant human C-terminal His-tagged HDAC8 (1 to 377 residues) expressed in insect cells to IC50 of human HDAC6
// reported Ratio IC50 per item
Observed property: Ratio IC50

structure_as_smiles=COc1ccc(Oc2ccc3nc(/C=C/C(=O)NO)ccc3c2)cc1 observed_property="Ratio IC50" val=374
structure_as_smiles=COc1cc(Oc2ccc3nc(/C=C/C(=O)NO)ccc3c2)cc(OC)c1OC observed_property="Ratio IC50" val=106
structure_as_smiles=COc1ccc(-c2ccc3nc(/C=C/C(=O)NO)ccc3c2)cc1 observed_property="Ratio IC50" val=97
structure_as_smiles=O=C(/C=C/c1ccc2cc(Oc3ccc([N+](=O)[O-])cc3)ccc2n1)NO observed_property="Ratio IC50" val=45

----------
- Subject of test: UniProtKB Q92769
- Sequence (Q92769 whole entry, the tested form may be a part): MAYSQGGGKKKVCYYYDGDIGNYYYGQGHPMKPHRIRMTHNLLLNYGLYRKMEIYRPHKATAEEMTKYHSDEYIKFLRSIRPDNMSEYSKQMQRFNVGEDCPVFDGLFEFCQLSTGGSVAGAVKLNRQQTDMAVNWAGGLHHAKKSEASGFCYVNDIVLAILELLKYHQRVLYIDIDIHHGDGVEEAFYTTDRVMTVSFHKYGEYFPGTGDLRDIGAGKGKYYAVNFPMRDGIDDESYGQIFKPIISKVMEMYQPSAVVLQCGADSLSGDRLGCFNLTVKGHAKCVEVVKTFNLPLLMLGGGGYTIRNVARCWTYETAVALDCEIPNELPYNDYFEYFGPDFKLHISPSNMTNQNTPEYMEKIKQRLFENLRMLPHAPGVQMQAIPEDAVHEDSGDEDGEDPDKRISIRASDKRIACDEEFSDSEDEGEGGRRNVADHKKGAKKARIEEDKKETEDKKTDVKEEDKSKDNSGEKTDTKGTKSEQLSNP
- Assay details: Inhibition of recombinant human C-terminal GST-tagged HDAC2 (1 to 488 residues) expressed in insect cells using RHK-K(Ac)-AMC as substrate measured after 60 mins by fluorescence assay
- Reported conditions: read-out: IC50
Observed property: IC50

structure_as_smiles=COc1ccc(-c2ccc3nc(/C=C/C(=O)NO)ccc3c2)cc1 subject_of_test="UniProtKB Q92769" observed_property=IC50 val="1310 nM"
structure_as_smiles=COc1cc(Oc2ccc3nc(/C=C/C(=O)NO)ccc3c2)cc(OC)c1OC subject_of_test="UniProtKB Q92769" observed_property=IC50 val="18.7 nM"
